From: ChEMBL document CHEMBL1155638

# METHOD: Therapeutic index, IC50 for human T-lymphoid H9 cells to EC50 for HIV1 3B isolate
# Assay type: cell-based
# MEASUREMENT_SETUP: read-out: Ratio IC50/EC50
In this section we review reported selectivity ratio values for a set of compounds.

# SMILES_RECORD, RESULT_COMPARATOR, selectivity ratio
rows = [
    ("C=C(C)[C@@H]1CC[C@]2(C(=O)O)CC[C@]3(C)[C@H](CC[C@@H]4[C@@]5(C)CC[C@H](O)C(C)(C)[C@@H]5CC[C@]43C)[C@@H]12", "=", 9.2),
    ("C[C@H]1[C@H](C)CC[C@]2(C(=O)O)CC[C@]3(C)C(=CC[C@@H]4[C@@]5(C)CC[C@H](OC(=O)CCCC(=O)O)C(C)(C)[C@@H]5CC[C@]43C)[C@H]12", "=", 4.8),
    ("C=C(C)[C@@H]1CC[C@]2(C(=O)O)CC[C@]3(C)[C@H](CC[C@@H]4[C@@]5(C)CC[C@H](OC(=O)CC(C)(C)C(=O)O)C(C)(C)[C@@H]5CC[C@]43C)[C@@H]12", ">", 20000),
    ("CC1(C)CC[C@]2(C(=O)O)CC[C@]3(C)C(=CC[C@@H]4[C@@]5(C)CC[C@H](O)C(C)(C)[C@@H]5CC[C@]43C)[C@@H]2C1", "=", 12.9),
    ("C[C@H]1[C@H](C)CC[C@]2(C(=O)O)CC[C@]3(C)C(=CC[C@@H]4[C@@]5(C)CC[C@H](OC(=O)COCC(=O)O)C(C)(C)[C@@H]5CC[C@]43C)[C@H]12", "=", 156),
]
